- assay-target: PDE4B (Homo sapiens, UniProt Q07343)
- Construct: active site fragment comprising the amino acids 152-484
- Sequence (Q07343 324-656): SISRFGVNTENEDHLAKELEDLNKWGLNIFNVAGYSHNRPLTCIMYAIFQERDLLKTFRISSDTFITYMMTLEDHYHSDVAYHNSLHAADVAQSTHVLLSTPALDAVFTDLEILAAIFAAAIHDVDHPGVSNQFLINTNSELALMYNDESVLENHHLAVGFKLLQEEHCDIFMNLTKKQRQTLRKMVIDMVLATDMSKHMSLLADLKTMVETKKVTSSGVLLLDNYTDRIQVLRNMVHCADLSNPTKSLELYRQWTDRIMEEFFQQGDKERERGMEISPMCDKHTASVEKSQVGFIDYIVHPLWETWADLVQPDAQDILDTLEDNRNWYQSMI
- test-summary: PDE4B Scintillation Proximity (SPA) Assay
- condition-description: PDE4B active site fragment amino acids 152-484, [3H]cAMP, 30° C., one hour; read-out: Experimentally determined IC50-value for PDE4B inhibition
property-name: pIC50
One number for each entry, as −log10 of the molar value.

[O-][S+]1CCc2nc(N3CCC(c4ccc(Cl)cc4)CC3)nc(NC3(CO)CC3)c21 (stereo not drawn) [Prior art compound A]
8.48
[O-][S+]1CCc2nc(N3CCC(c4ncc(Cl)cn4)CC3)nc(NC3(CO)CCC3)c21 (single isomer, unassigned) [Example 2]
8.14
[O-][S+]1CCc2nc(N3CCC(c4ccc(Cl)cc4)CC3)nc(NC3(CO)CCC3)c21 (single isomer, unassigned) [Example 1]
8.37

Give pIC50 for each listed item.
1. [O-][S+]1CCc2nc(N3CCC(c4c[nH]cn4)CC3)nc(NC3(CO)CC3)c21 (stereo not drawn) [Prior art compound B]
2. [O-][S+]1CCc2nc(N3CCC(c4cccc(Cl)c4)CC3)nc(NC3(CO)CC3)c21 (stereo not drawn) [Prior art compound D]
3. [O-][S+]1CCc2nc(N3CCC(c4ccncc4)CC3)nc(NC3(CO)CC3)c21 (stereo not drawn) [Prior art compound C]

1: 7.18; 2: 8.14; 3: 7.36

Reference source for all entries: patent US20130059866A1
